Numbers sourced from patent US10947226B2.

# targetOfAssay: human RIP1 kinase domain (2-375) (Homo sapiens (Human))
# Sequence (Q13546 2-375): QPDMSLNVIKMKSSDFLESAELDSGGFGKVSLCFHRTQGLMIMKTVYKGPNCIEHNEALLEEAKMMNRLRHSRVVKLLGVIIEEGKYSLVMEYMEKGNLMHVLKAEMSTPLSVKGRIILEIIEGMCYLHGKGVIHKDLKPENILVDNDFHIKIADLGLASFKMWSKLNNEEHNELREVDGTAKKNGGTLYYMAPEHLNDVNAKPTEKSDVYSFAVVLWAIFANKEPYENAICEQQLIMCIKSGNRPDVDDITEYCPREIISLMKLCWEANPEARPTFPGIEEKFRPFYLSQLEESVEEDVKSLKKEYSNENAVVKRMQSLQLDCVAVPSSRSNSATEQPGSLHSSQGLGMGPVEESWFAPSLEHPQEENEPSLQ
pKi: −log10 of the molar value.
reportedProperty: pKi

compound	pKi
CN1C(=O)[C@@H](NC(=O)c2ncn(Cc3ccccc3)n2)CCc2cn(C)c(=O)cc21 (single isomer, unassigned) [Example 5]	7.10

P: CN1C(=O)[C@@H](NC(=O)c2nc3n(n2)[C@H](c2ccccc2F)CC3)CCc2cn(CC3CC3)c(=O)cc21 (single isomer, unassigned) [Example 14]
Q: CCn1cc2c(cc1=O)N(C)C(=O)[C@@H](NC(=O)c1nc3n(n1)[C@H](c1ccccc1F)CC3)CC2 (single isomer, unassigned) [Example 18]
Hi! Which is lower in terms of pKi, the first one P or the second one Q ? Pick one; state its label.
Q
(Q: 6.96, P: 7.25)
